test system: PHKG2; settings: concentration: 1 μM, replicates: in singlicate; n = 1;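 note: KINOMEscan kinase panel screen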
endpoint: %Inh (%)
The figure you give is taken to be in %; do not add the unit.

Look over these answered cases.
>  <smiles-text>
O=C(Nc1cccc(-c2nn3ccccc3c2-c2ccnc(Nc3cccc(C(F)(F)F)c3)n2)c1)c1c(F)cccc1F

>  <endpoint>
%Inh

>  <recorded-result>
0

$$$$
>  <smiles-text>
C[C@@H](Oc1cc(-n2cnc3cc(-c4ccnc(NCCS(C)(=O)=O)c4)ccc32)sc1C(N)=O)c1ccccc1Cl

>  <endpoint>
%Inh

>  <recorded-result>
2

$$$$
>  <smiles-text>
Cc1ccc(C(=O)Nc2ccc(Nc3ccnc4cc(-c5nccs5)ccc34)cc2O)cc1.Cl

>  <endpoint>
%Inh

>  <recorded-result>
0

$$$$
>  <smiles-text>
CN(C)Cc1ccc(-c2ccc3c(Nc4ccc(Oc5ccccn5)cc4)ccnc3c2)o1

>  <endpoint>
%Inh

>  <recorded-result>
0

$$$$

The record that follows has no %Inh shown yet.
Please supply the value of reported %Inh for the item COc1cc(Nc2nccc(-c3c(-c4cccc(NC(=O)c5c(F)cccc5F)c4)nn4ccccc34)n2)cc(OC)c1OC
10

###

test system: TYRO3; conditions: concentration: 1 μM, replicates: in singlicate; n = 1
// %Inh lookup, one value per entry
# value in %; strip the unit string

Supply reported %Inh belonging to this molecule: COc1cccc(C(=O)Nc2cccc(Oc3ccc4nc(NC(=O)C5CC5)cn4n3)c2)c1
47

Entry O=C(Nc1cccc(-c2nn3ncccc3c2-c2ccnc(Nc3ccccc3)n2)c1)c1c(F)cccc1F needs its %Inh filled in; supply it.
100

Using known records, supply %Inh for Cc1ccc(C(=O)Nc2ccc(Nc3ccnc4cc(-c5nccs5)ccc34)cc2O)cc1.Cl
19

Using known records, supply %Inh for CN1CCN(CCCNc2nccc(-c3c(-c4ccc(F)cc4)nn4cc(C(F)(F)F)ccc34)n2)CC1
0

###

tested on: MAP4K2; details: concentration: 1 μM, replicates: in singlicate; n = 1
Collected %Inh values appear next to each entry.
The reply should contain only the number, in %.

>  <molecule>
O=C(O)C(F)(F)F.O=C(O)C(F)(F)F.O=c1[nH]ccc2nc(N[C@@H]3CCCNC3)nc(Nc3ccc(S(=O)(=O)N4CCOCC4)cc3)c12 [GSK2177277]

>  <target>
MAP4K2

>  <%Inh (%)>
100

$$$$
>  <molecule>
O=C(NC1CCN(c2ccnc(Nc3ccc(F)cc3)n2)C1)c1cc2ccccc2s1 (centres unmarked) [GSK1379716]

>  <target>
MAP4K2

>  <%Inh (%)>
0

$$$$
>  <molecule>
c1ccc(-c2n[nH]cc2Nc2ccnc3ccccc23)nc1 [GW694077]

>  <target>
MAP4K2

>  <%Inh (%)>
65

$$$$
>  <molecule>
O=C(Nc1cccc(-c2nn3ccccc3c2-c2ccnc(Nc3cccc(F)c3)n2)c1)c1c(F)ccc(F)c1Cl [GSK357952]

>  <target>
MAP4K2

>  <%Inh (%)>
0

$$$$
>  <molecule>
C[C@@H]1CC[C@@H](C(=O)Nc2ccccc2)CN1c1cc(-c2ccc3c(N)n[nH]c3c2)nc(N)n1 [GSK2286062]

>  <target>
MAP4K2

>  <%Inh (%)>
3

$$$$

# return %Inh for Nc1n[nH]c2cnc(-c3ccccc3)cc12 [SB-642124] , test system: MAP4K2
31

# assay system MAP4K2: give %Inh of COc1cccc(C(=O)Nc2cccc(Oc3ccc4nc(NC(=O)C5CC5)cn4n3)c2)c1
0

Report %Inh from MAP4K2 testing of Cl.c1ccc(-c2ccc3c(Nc4ccc5[nH]ncc5c4)ccnc3c2)nc1 [GW440137]
0

Fill: %Inh (MAP4K2) for this molecule COc1ccc(Nc2nccc(N3CCC(NC(=O)Nc4cccc(OC)c4)C3)n2)cc1 (centres unmarked) [GSK1379742]
0

###

tested on: MAPKAPK5; conditions: concentration: 1 μM, replicates: in singlicate; n = 1
endpoint: %Inh (%)
Just the number in %, nothing appended.

Some solved entries appear below for comparison.
>  <compound>
CSc1cccc2c(-c3ccncn3)c(-c3ccc(F)cc3)nn12 [GW514786]

>  <target>
MAPKAPK5

>  <%Inh, %>
0

$$$$
>  <compound>
COc1cc2c(cc1OCCN1CCNCC1)ncc1c3ccc(C#N)cc3[nH]c21

>  <target>
MAPKAPK5

>  <%Inh, %>
0

$$$$
>  <compound>
CN1CCN(CCCNc2nccc(-c3c(-c4ccc(F)cc4)nn4cc(C(F)(F)F)ccc34)n2)CC1 [GW621581]

>  <target>
MAPKAPK5

>  <%Inh, %>
0

$$$$
>  <compound>
O=C(Nc1n[nH]c2cc(-c3ccoc3)ccc12)C1CC1 [SB-738481]

>  <target>
MAPKAPK5

>  <%Inh, %>
10

$$$$

Give the observed %Inh of CN(C)S(=O)(=O)c1cc(-c2ccc3nccc(-c4cccc(S(N)(=O)=O)c4)c3c2)cnc1N [GSK1669921] for MAPKAPK5.
8

Report value: %Inh, system: MAPKAPK5, compound: Cl.Cl.NCC(C(=O)Nc1cc(Br)c(-c2ccnc3[nH]ccc23)s1)c1ccccc1 (centres unmarked) [GSK1269851]
0

Name the recorded %Inh of Cn1cc(-c2ccc3c(c2)CCN3C(=O)Cc2cccc(Cl)c2)c2c(N)ncnc21 [GSK2606590] , assay system MAPKAPK5.
0

Find %Inh for COc1ccc(Nc2nccc(N3CCC(NC(=O)Nc4cccc(OC)c4)C3)n2)cc1 (centres unmarked) [GSK1379742] on MAPKAPK5 and write it down.
0

State measured %Inh of the compound O=C(NC1CCN(c2ccnc(Nc3ccc(F)cc3)n2)C1)c1cc2ccccc2s1 (centres unmarked) [GSK1379716] with MAPKAPK5.
0

###

%Inh values for the compounds below.
test system: TESK1; conditions: concentration: 1 μM, replicates: in singlicate; n = 1
The number alone won't do; follow it with the unit.

>  <compound>
CNC(=O)c1ccccc1Nc1nc(Nc2ccc(N3CCOCC3)cc2)ncc1Cl.Cl

>  <%Inh>
26%

$$$$

Fill in %Inh for record COCCOCCOc1cc2ncc3c4ccc(C#N)cc4[nH]c3c2cc1OC
18%

Note down %Inh recorded for Cl.c1ccc(-c2ccc3c(Nc4ccc5[nH]ccc5c4)ccnc3c2)nc1
23%

Assign %Inh to the following record: Cc1ccc(C)c(NC(=O)NC2CCN(c3ccnc(Nc4ccc(F)cc4)n3)C2)c1 (stereo not shown)
28%

Give reported %Inh value for O=C(Nc1n[nH]c2cc(-c3ccoc3)ccc12)C1CC1
0%

Annotate the compound O=C(Nc1cccc(-c2nn3ccccc3c2-c2ccnc(Nc3cccc(F)c3)n2)c1)c1c(F)ccc(F)c1Cl with its measured %Inh.
0%

Return the recorded %Inh value; entry: Cl.c1ccc(-c2ccc3c(Nc4ccc5[nH]ncc5c4)ccnc3c2)nc1
63%

Return value of %Inh for input CC(C)c1nc(-c2cccc(NS(=O)(=O)c3c(F)cccc3F)c2F)c(-c2ccnc(Nc3ccc(N4CCOCC4)nc3)n2)s1 , no commentary.
100%

Give the value of %Inh reported for the following: COc1cc(Nc2nccc(N3CCC(NC(=O)Nc4cccc(C(C)=O)c4)C3)n2)cc(OC)c1OC (stereo not shown)
1%

Answer with the recorded %Inh of Cc1occc1-c1ncc(OC[C@@H](N)Cc2c[nH]c3ccccc23)cc1-c1ccc2[nH]nc(C)c2c1.O=C(O)C(F)(F)F only.
19%

Indicate the recorded %Inh value for this compound: O=C(Nc1ccccc1F)NC1CCN(c2ccnc(Nc3ccc(F)cc3)n2)CC1
17%

For the compound COc1cccc(-c2ccc3c(NC(=O)C4CC4)n[nH]c3n2)c1 , report %Inh.
36%

Using known records, supply %Inh for COc1ccc(Nc2nccc(NCCNC(=O)c3cc4ccccc4s3)n2)cc1
0%

# return recorded %Inh for entry CC(=O)Nc1nc2cnc(Nc3cc(NC(=O)c4cccc(C5(C#N)CC5)c4Cl)ccc3C)nc2s1
0%

Output measured %Inh for this item: O=C(Nc1cccc(-c2nn3ncccc3c2-c2ccnc(Nc3ccccc3)n2)c1)c1c(F)cccc1F
24%

For the compound COc1cc(Nc2ncc3c(C)nc(-c4cc5ccccc5[nH]4)n3n2)cc(OC)c1OC , give its reported %Inh.
1%

Respond only with %Inh recorded for CN1CCN(Cc2cccc(-c3ccc4c(Nc5ccc(Oc6ccccc6)cc5)ccnc4c3)c2)CC1
2%

Provide measured %Inh value, entry: Cl.Cl.NCC(NCc1ccc(-c2ccnc3[nH]ccc23)s1)c1ccccc1 (stereo not shown)
18%

Please indicate %Inh recorded for C[C@@H](Oc1cc(-n2cnc3cc(-c4ccnc(NCCS(C)(=O)=O)c4)ccc32)sc1C(N)=O)c1ccccc1Cl
28%

###

tested on: PRKX; conditions: concentration: 1 μM, replicates: in singlicate; n = 1
endpoint: %Inh (%)
Your answer should be a plain number; it is taken to be in %.

>  <compound>
Nc1ncc(-c2ccc3nccc(-c4ccncc4)c3c2)cc1S(=O)(=O)N1CCOCC1

>  <%Inh / %>
11

$$$$
>  <compound>
O=C(O)C(F)(F)F.O=C(O)C(F)(F)F.O=c1[nH]ccc2nc(N[C@@H]3CCCNC3)nc(Nc3ccc(S(=O)(=O)N4CCOCC4)cc3)c12

>  <%Inh / %>
94.6

$$$$
>  <compound>
O=C(NC1CCN(c2ccnc(Nc3ccc(F)cc3)n2)C1)c1cc2ccccc2s1 (centres unmarked)

>  <%Inh / %>
4

$$$$
>  <compound>
Cn1cc(-c2ccc3c(c2)CCN3C(=O)Cc2cccc(F)c2)c2c(N)ncnc21

>  <%Inh / %>
14

$$$$
>  <compound>
Fc1ccc(-c2ncn(C3CCNCC3)c2-c2ccnc(Oc3ccc(-c4ccccc4)cc3)n2)cc1

>  <%Inh / %>
0

$$$$

Please look at the following compound next.
Give me measured %Inh, please, for this compound: COc1cccc(C(=O)Nc2cccc(Oc3ccc4nc(NC(=O)C5CC5)cn4n3)c2)c1
2
